Test: PK of compound of Formula (Ia) after single subcutaneous dose of solution formulations in Wistar Han rats
Format: in vivo
Details: male, Wistar Han, rat, plasma, sc, 50 mg/kg, 3024 h; individual rats; SC 50 mg/kg; solution S, 500 mg/mL
Description: Formulations containing the compound of Formula (Ia), or a pharmaceutically acceptable salt thereof, were prepared as solutions and optionally administered subcutaneously or intramuscularly to rats, rabbits, and/or dogs. A solution of about 400 mg/mL of the compound of Formula (Ia) having 19.14 w/w % water, 40.66 w/w % PEG 300, 35.20 w/w % of a sodium salt of a compound of Formula (Ia), and 5.00% ethanol was prepared. […]

{"Mol Smiles": "CC(C)(C#Cc1ccc(-c2ccc(Cl)c3c(NS(C)(=O)=O)nn(CC(F)(F)F)c23)c([C@H](Cc2cc(F)cc(F)c2)NC(=O)Cn2nc(C(F)(F)F)c3c2C(F)(F)[C@@H]2C[C@H]32)n1)S(C)(=O)=O", "concentration at 3024 h": "125 nM"}
